Target: T1, human EphA3 (Homo sapiens, UniProt P29320)
T1 construct: a protein of the extracellular region of each human Eph receptor fused with the SEAP protein and the His tag; made in house; host or cells: Expi293F cells (culture supernatant)
T1 sequence (P29320 21-541 limits assumed): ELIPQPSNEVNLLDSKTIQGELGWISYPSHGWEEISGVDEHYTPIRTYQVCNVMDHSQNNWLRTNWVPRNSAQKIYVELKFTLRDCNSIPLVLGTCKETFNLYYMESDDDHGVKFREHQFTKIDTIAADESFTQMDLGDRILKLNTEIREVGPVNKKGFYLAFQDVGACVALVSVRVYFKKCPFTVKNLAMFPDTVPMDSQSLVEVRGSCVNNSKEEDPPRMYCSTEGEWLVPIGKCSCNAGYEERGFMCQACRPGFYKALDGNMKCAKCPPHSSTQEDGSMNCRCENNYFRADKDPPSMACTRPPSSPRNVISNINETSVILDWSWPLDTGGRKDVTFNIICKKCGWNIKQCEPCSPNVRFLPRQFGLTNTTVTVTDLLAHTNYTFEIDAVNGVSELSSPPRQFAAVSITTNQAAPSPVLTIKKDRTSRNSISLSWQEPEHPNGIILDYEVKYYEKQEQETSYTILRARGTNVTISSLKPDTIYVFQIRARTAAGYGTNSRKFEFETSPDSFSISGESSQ
Test: Selectivity ELISA of humanized antibodies for human Eph receptor
Type: binding
Settings: coated protein 1 nM
Description: According to the method described in Example 7, a DNA sequence encoding the signal sequence and the extracellular region of each human Eph receptor (EphA1, EphA2, EphA3, EphA4, EphA5, EphA6, EphA7, EphA8, EphA10, EphB1, EphB2, EphB3, EphB4, and EphB6) was amplified by RT-PCR using tissue-derived total RNA and cloned into a pENTR1A vector (Invitrogen/Life Technologies) having a DNA sequence encoding SEAP protein and histidine tag. […]
List of hEphA3-SEAP-: absorbance at 450 nm, percentage with respect to hEphA4-SEAP-His as 100% values.
recordedMetric: hEphA3-SEAP-: absorbance at 450 nm, percentage with respect to hEphA4-SEAP-His as 100% (%)

{"molecule": "96 (antibody, V domains shown, constant regions without entry; synthetic humanized antibody light chain variable region sequence; synthetic humanized antibody heavy chain variable region sequence) VL: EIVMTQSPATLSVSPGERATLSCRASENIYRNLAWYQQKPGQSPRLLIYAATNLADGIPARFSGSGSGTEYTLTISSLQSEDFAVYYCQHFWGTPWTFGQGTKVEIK VH: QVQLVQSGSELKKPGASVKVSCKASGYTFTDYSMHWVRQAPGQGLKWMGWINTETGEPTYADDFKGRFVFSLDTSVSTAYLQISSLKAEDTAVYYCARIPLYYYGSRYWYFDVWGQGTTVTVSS", "measuredValue": 5.5}
{"molecule": "160 (antibody, V domains shown, synthetic humanized antibody heavy chain variable region sequence; synthetic humanized antibody light chain variable region sequence) VH: QIQLVQSGSELKKPGASVKVSCKASGYTFTDYSMHWVRQAPGQGLKWMGWINTETGEPTYADDFKGRFVFSLDTSVSTAYLQISSLKAEDTAVYYCARIPLYYYGSRYWYFDVWGQGTTVTVSS VL: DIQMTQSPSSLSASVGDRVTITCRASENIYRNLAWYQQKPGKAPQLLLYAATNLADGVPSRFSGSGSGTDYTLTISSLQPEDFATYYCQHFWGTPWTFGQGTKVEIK", "measuredValue": 6.2}
{"molecule": "135 (antibody, V domains shown, synthetic humanized antibody heavy chain variable region sequence; synthetic humanized antibody light chain variable region sequence) VH: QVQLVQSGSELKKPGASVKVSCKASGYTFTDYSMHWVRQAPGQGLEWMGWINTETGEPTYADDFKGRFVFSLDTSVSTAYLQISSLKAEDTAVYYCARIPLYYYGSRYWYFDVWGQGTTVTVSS VL: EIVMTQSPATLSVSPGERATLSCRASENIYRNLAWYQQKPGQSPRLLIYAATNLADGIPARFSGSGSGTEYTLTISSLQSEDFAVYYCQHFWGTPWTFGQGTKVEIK", "measuredValue": 5.0}
{"molecule": "91 (antibody, V domains shown, constant regions without entry; synthetic humanized antibody light chain variable region sequence; synthetic humanized antibody heavy chain variable region sequence) VL: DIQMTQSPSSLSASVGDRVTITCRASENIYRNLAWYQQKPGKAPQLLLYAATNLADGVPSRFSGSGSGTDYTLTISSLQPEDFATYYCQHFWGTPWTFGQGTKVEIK VH: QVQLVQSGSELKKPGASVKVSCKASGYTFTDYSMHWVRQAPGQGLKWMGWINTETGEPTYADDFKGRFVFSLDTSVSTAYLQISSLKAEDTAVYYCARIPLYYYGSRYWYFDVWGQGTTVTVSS", "measuredValue": 6.6}
